System: GIST-T1 cells
Test: Hit validation cell proliferation, 12-point dose-response, GIST-T1
Assay type: cell-based
Settings: read-out: IC50 GIST-T1; hit validation, 12-point 20 μM to 1 nM, triplicate, 72 h
reported metric: IC50 (nM)
// units = nM; emit number, no label

Ask: Can you share its IC50? I mean this molecule: CC(=O)OC[C@H]1O[C@@H]([S-])[C@H](OC(C)=O)[C@@H](OC(C)=O)[C@@H]1OC(C)=O.CCP(CC)CC.[Au+]
Reply: 250
